# Test system: S. Typhimurium PhoP-regulated promoter GFP reporter, 4 h
# assay_notes: inhibitors of PhoP regulon expression, primary screen, Salmonella Typhimurium, GFP reporter (AID 1863)
Below, each entry is listed alongside its reported IC50.
reported_endpoint: IC50

>>> df
                                    compound  assay_result
 0                    Cc1cc(C)c2ccc(N)nc2c1O       69.4 µM
 1  CCCCCCCCCCOC(=O)Cn1c(COc2ccc(Cl)cc2)[n+](C)c2ccccc21       19.5 µM
 2                   O=c1[nH]cc(F)c(=O)[nH]1       9.78 µM
 3           O=[N+]([O-])c1cc(Cl)c2cccnc2c1O       3.07 µM
 4         CCCCCCCCn1c2c(c(=N)c3ccccc31)CCC2       47.7 µM
 5         Cc1cccc(Nc2cc(C)c3c(O)cccc3n2)c1C       39.2 µM
 6  C=C1c2c(Cl)ccc(O)c2C(O)=C2C(=O)[C@]3(O)C(O)=C(C(N)=O)C(=O)[C@@H](N(C)C)[C@@H]3[C@@H](O)C12 (stereo partly specified)       2.22 µM
 7  CCCCCCCNC(=O)C1(CC2CC(c3ccc(Cl)cc3)=NO2)CCNCC1 (stereo unspecified)       54.5 µM
 8    O=[N+]([O-])c1cc(CN2CCOCC2)c2cccnc2c1O       44.2 µM
 9  Cc1ccnc(NC(c2cccnc2)c2ccc3cccnc3c2O)c1 (stereo unspecified)       57.1 µM
10  CO/N=C(/C(=O)N[C@@H]1C(=O)N2C(C(=O)O)=CCS[C@H]12)c1cnc(N)s1         16 µM

====

# Tested on: S. Typhimurium PhoP-regulated promoter GFP reporter, 4 h
# assay_notes: inhibitors of PhoP regulon expression, primary screen, Salmonella Typhimurium, GFP reporter (AID 1863)
pIC50: −log10 of the molar value.

compound	pIC50
C/C(=C\C(=O)OCCCCCCCCC(=O)O)C[C@@H]1OC[C@H](C[C@@H]2O[C@H]2[C@@H](C)[C@H](C)O)[C@@H](O)[C@H]1O	4.98
Cc1ccc(/C=C/C(=O)c2ccccc(=O)c2O)cc1C	4.37
Oc1cccc(/C=N/NC(=S)Nc2cccnc2)c1O	4.34
Oc1ccc(CN2CCCc3ccccc32)c2cccnc12	4.16
CCCCCCOC(=O)C[N+](C)(C)CCOC1CC2CCC1(C)C2(C)C (centres undefined)	4.40
CC(=O)Oc1cc2cccc(OC(C)=O)c(=O)c2c(OC(C)=O)c1OC(C)=O	4.33
C=CC1=C(C(=O)O)N2C(=O)[C@@H](NC(=O)/C(=N\O)c3csc(N)n3)[C@H]2SC1 (stereo in doubt)	4.60
Nc1[nH]c(=O)ncc1F	4.54
CC[C@H]1OC(=O)C[C@@H](O)[C@H](C)[C@@H](O[C@@H]2O[C@H](C)C[C@H](N(C)C)[C@H]2O)[C@@H](CC=O)C[C@@H](C)C(=O)C=C[C@]2(C)O[C@H]2[C@@H]1C	4.74

====

# System: S. Typhimurium PhoP-regulated promoter GFP reporter, 4 h
# assay_notes: inhibitors of PhoP regulon expression, primary screen, Salmonella Typhimurium, GFP reporter (AID 1863)
pIC50: −log10 of the molar value.

molecule	assayed_system	pIC50
CC(C(=O)NC1C=CS(=O)(=O)C1)N1C(=O)/C(=C/c2ccc(Cl)cc2)SC1=S (stereo not given)	S. Typhimurium PhoP-regulated promoter GFP reporter, 4 h	4.14
CCC(C)(C)c1ccc(OCCCC[n+]2ccc(C)cc2)c(C(C)(C)CC)c1	S. Typhimurium PhoP-regulated promoter GFP reporter, 4 h	4.17
CCCCCCCCCCOC(=O)Cn1c(COc2ccccc2OC)[n+](C)c2ccccc21	S. Typhimurium PhoP-regulated promoter GFP reporter, 4 h	4.54
CCCCCCCCn1c2c(c(=N)c3c1CCC3)CCCC2	S. Typhimurium PhoP-regulated promoter GFP reporter, 4 h	4.17
Oc1c(Br)cc(Br)cc1C=NCc1ccccc1	S. Typhimurium PhoP-regulated promoter GFP reporter, 4 h	3.99
NCC12CC3CC(C1)CC(c1ccc(Br)cc1)(C3)C2	S. Typhimurium PhoP-regulated promoter GFP reporter, 4 h	4.21
Cc1cc(SCC(=O)N/N=C/c2ccc(O)c(O)c2O)c(C)cc1Br	S. Typhimurium PhoP-regulated promoter GFP reporter, 4 h	4.38
C#CCOCCOCCOCCNc1nc(N2CCN(C(=O)CCCCCCCCCCNC(=O)[C@H](CO)n3cc(CCCCCN)nn3)CC2)nc(N2CCN(C(=O)CCCCCCCCCCNC(=O)[C@H](CCCN=C(N)N)n3cc(C[C@@H](C)CC)nn3)CC2)n1	S. Typhimurium PhoP-regulated promoter GFP reporter, 4 h	3.99
Nc1cc2nsnc2cc1Br	S. Typhimurium PhoP-regulated promoter GFP reporter, 4 h	3.98
O=C(Cn1nc(CNc2ccc(Cl)cc2)[n+]2c1CCCCC2)c1ccc(Br)cc1	S. Typhimurium PhoP-regulated promoter GFP reporter, 4 h	4.04
CC1CCc2c(N3CCC(O)CC3)c(F)cc3c(=O)c(C(=O)O)cn1c23 (stereo not given)	S. Typhimurium PhoP-regulated promoter GFP reporter, 4 h	5.20
CCCCNC(=O)c1cn(CC)c2cc(N3CCN(C)CC3)c(F)cc2c1=O	S. Typhimurium PhoP-regulated promoter GFP reporter, 4 h	4.63
CCC(C)N1CCC2(CC1)N=c1c(c3c4c5c(C)c(O)c3c(O)c1=NC(=O)C(C)=CC=C[C@H](C)[C@H](O)[C@@H](C)[C@@H](O)[C@@H](C)[C@H](OC(C)=O)[C@H](C)[C@@H](OC)C=CO[C@@](C)(O5)C4=O)N2 (stereo not given in full)	S. Typhimurium PhoP-regulated promoter GFP reporter, 4 h	5.57
Nc1ccc2c(c1)C(=O)C(=O)c1ccccc1-2	S. Typhimurium PhoP-regulated promoter GFP reporter, 4 h	4.92
O=C(Nc1nnc(-c2cccs2)o1)c1cccc(Oc2ccccc2)c1	S. Typhimurium PhoP-regulated promoter GFP reporter, 4 h	4.10
CCc1ccc(S(=O)(=O)/N=C2/C=C(Sc3ncn[nH]3)C(=O)c3ccccc32)cc1	S. Typhimurium PhoP-regulated promoter GFP reporter, 4 h	4.00
C(=N\Nc1ccccn1)/c1cccnc1	S. Typhimurium PhoP-regulated promoter GFP reporter, 4 h	4.39
COc1ccc2[nH]c3c(C)c4ccncc4c(C)c3c2c1	S. Typhimurium PhoP-regulated promoter GFP reporter, 4 h	4.50
Cc1ccc(C(=O)N/N=C/c2cc(Br)ccc2O)cn1	S. Typhimurium PhoP-regulated promoter GFP reporter, 4 h	4.12
O=C(N/N=C\c1cccc([N+](=O)[O-])c1O)C1COc2ccccc2O1 (stereo not given)	S. Typhimurium PhoP-regulated promoter GFP reporter, 4 h	3.98
CC(C)(C)CC(C)(C)c1ccc(OCCOCC[N+](C)(C)Cc2ccccc2)cc1	S. Typhimurium PhoP-regulated promoter GFP reporter, 4 h	4.44
COc1c(N2CCN(C(=S)NCc3ccccc3)C(C)C2)c(F)cc2c(=O)c(C(=O)O)cn(C3CC3)c12 (stereo not given)	S. Typhimurium PhoP-regulated promoter GFP reporter, 4 h	4.36
CC[C@H]1OC(=O)[C@H](C)[C@@H](O[C@H]2C[C@@](C)(OC)[C@@H](O)[C@H](C)O2)[C@H](C)[C@@H](O[C@@H]2O[C@H](C)C[C@H](N(C)C)[C@H]2O)[C@](C)(O)C[C@@H](C)[C@@H]2N[C@@H](COCCOC)O[C@H]([C@H]2C)[C@]1(C)O	S. Typhimurium PhoP-regulated promoter GFP reporter, 4 h	4.48
OCCN1CCN(Cc2cc(Cl)c3cccnc3c2O)CC1	S. Typhimurium PhoP-regulated promoter GFP reporter, 4 h	3.98
O=C1c2ccccc2NC(c2ccc(-c3cccc(Cl)c3)o2)N1O (stereo not given)	S. Typhimurium PhoP-regulated promoter GFP reporter, 4 h	3.94
CCCCCCCNC(=O)C1(CC2CC(c3cccc(Br)c3)=NO2)CCNCC1 (stereo not given)	S. Typhimurium PhoP-regulated promoter GFP reporter, 4 h	4.34
Oc1ccc(Cl)cc1Cc1cc(Cl)ccc1O	S. Typhimurium PhoP-regulated promoter GFP reporter, 4 h	4.44
CC1CCc2cc(F)cc3c(=O)c(C(=O)O)cn1c23 (stereo not given)	S. Typhimurium PhoP-regulated promoter GFP reporter, 4 h	5.23
CCc1ccc(-c2nn(-c3ccccc3)cc2CSC(=N)N)cc1	S. Typhimurium PhoP-regulated promoter GFP reporter, 4 h	4.43
O=C(C[n+]1cccc(CNC(=O)c2ccc(OC(F)F)cc2)c1)Nc1ccc(SC(F)F)cc1	S. Typhimurium PhoP-regulated promoter GFP reporter, 4 h	4.03
COc1cccc(Nc2nc(NCC3CCCO3)c3ccccc3n2)c1 (stereo not given)	S. Typhimurium PhoP-regulated promoter GFP reporter, 4 h	4.09
O=C(NC(=S)NNC(=O)c1ccccc1O)c1ccco1	S. Typhimurium PhoP-regulated promoter GFP reporter, 4 h	4.15
CC1COc2c(N3CCN(C)CC3)c(F)cc3c(=O)c(C(=O)O)cn1c23 (stereo not given)	S. Typhimurium PhoP-regulated promoter GFP reporter, 4 h	6.41
COc1c(N2CCN[C@H](C)C2)c(F)cc2c(=O)c(C(=O)O)cn(C3CC3)c12	S. Typhimurium PhoP-regulated promoter GFP reporter, 4 h	6.44
CCCCCCCCCCCCCCCC[N+](C)(C)CC	S. Typhimurium PhoP-regulated promoter GFP reporter, 4 h	4.61
Cc1ccccc1OCc1n(CC(=O)OC2CC(C)CCC2C(C)C)c2ccccc2[n+]1C (stereo not given)	S. Typhimurium PhoP-regulated promoter GFP reporter, 4 h	4.15
Nc1nonc1-n1nnc(C(=O)N/N=C/c2cc(Br)ccc2O)c1CSC1=NCCS1	S. Typhimurium PhoP-regulated promoter GFP reporter, 4 h	3.91
Fc1ccc(CCNCc2ccc(Cl)c(Cl)c2)cc1	S. Typhimurium PhoP-regulated promoter GFP reporter, 4 h	4.07
Oc1c(I)cc(Cl)c2cccnc12	S. Typhimurium PhoP-regulated promoter GFP reporter, 4 h	4.75
COc1cc([N+](=O)[O-])cc(/C=N\NC(=O)C2COc3ccccc3O2)c1O (stereo not given)	S. Typhimurium PhoP-regulated promoter GFP reporter, 4 h	3.89
